Source: ChEMBL document CHEMBL5143601

// reported pKi per item
Biological target: Gamma-aminobutyric acid receptor subunit alpha-5/beta-2/gamma-2 (Homo sapiens, UniProt P18507+P31644+P47870)
Assay: Displacement of [3H]flunitrazepam from human recombinant alpha5beta2gamma2 GABAA receptor expressed in HEK cell membrane by competitive radioligand binding assay
Field pKi (float): negative decimal logarithm of the concentration in molar.

In the examples that follow, each entry is paired with its recorded pKi.
- MOL_SMILES: "Cc1nnc2n1-c1ccc(Br)cc1C(c1ccccc1Cl)=NC2"
  MEASURED: 9.40
- MOL_SMILES: "C#Cc1ccc2c(c1)C(c1ccccc1)=NCc1nnc(C)n1-2"
  MEASURED: 8.28
- MOL_SMILES: "C#Cc1ccc2c(c1)C(c1ccccc1F)=NCc1nnc(C)n1-2"
  MEASURED: 9.22
- MOL_SMILES: "C#Cc1ccc2c(c1)C(c1ccccc1)=N[C@@H](C)c1nnc(C)n1-2"
  MEASURED: 8.09
- MOL_SMILES: "C[C@@H]1N=C(c2ccccc2)c2cc(Br)ccc2NC1=O"
  MEASURED: 8.72
- MOL_SMILES: "C#Cc1ccc2c(c1)C(c1ccccc1Cl)=NCC(=O)N2C"
  MEASURED: 8.71
- MOL_SMILES: "O=C1CN=C(c2ccccc2)c2ccccc2N1"
  MEASURED: 6.85
- MOL_SMILES: "Cc1nnc2n1-c1ccc(Br)cc1C(c1ccccn1)=NC2"
  MEASURED: 8.11
- MOL_SMILES: "Cc1nnc2n1-c1ccc(Cl)cc1C(c1ccccc1)=NC2"
  MEASURED: 8.82
- MOL_SMILES: "CN1C(=O)CN=C(c2ccccc2)c2ccccc21"
  MEASURED: 7.01

Enquiry: // query pKi value for entry C#Cc1ccc2c(c1)C(c1ccccc1)=NCC(=O)N2C
Return: 8.17

Enquiry: // query pKi value for entry Cc1nnc2n1-c1ccc(Br)cc1C(c1ccccc1)=NC2
Return: 9.22

====

Biological target: GABA A receptor alpha-3/beta-2/gamma-2 (Homo sapiens, UniProt P18507+P34903+P47870)
Experiment: Displacement of [3H]flunitrazepam from human recombinant alpha3beta2gamma2 GABAA receptor expressed in HEK cell membrane by competitive radioligand binding assay
Output 1 (yes) for records whose Ki is lower than 20 nM, 0 (no) for records at or above 20 nM.

Below, 5 compounds whose answers are already recorded.
- MOL_SMILES: "Cc1nnc2n1-c1ccc(Br)cc1C(c1ccccc1Cl)=NC2"
  CLASS_LABEL: "1 (yes)"
- MOL_SMILES: "O=C1CN=C(c2ccccc2Cl)c2cc(Br)ccc2N1"
  CLASS_LABEL: "1 (yes)"
- MOL_SMILES: "C#Cc1ccc2c(c1)C(c1ccccc1)=N[C@@H](C)c1nnc(C)n1-2"
  CLASS_LABEL: "0 (no)"
- MOL_SMILES: "C#Cc1ccc2c(c1)C(c1ccccn1)=NCc1nnc(C)n1-2"
  CLASS_LABEL: "0 (no)"
- MOL_SMILES: "CN1C(=O)CN=C(c2ccccc2)c2cc(Br)ccc21"
  CLASS_LABEL: "0 (no)"

Then there is this compound:
Enquiry: Strictly below 20 nM in Ki? O=C1CN=C(c2ccccc2F)c2cc(Br)ccc2N1
Return: 1 (yes)

====

Target: GABA-A receptor; alpha-1/beta-2/gamma-2 (Homo sapiens, UniProt P14867+P18507+P47870)
Experiment: Displacement of [3H]flunitrazepam from human recombinant alpha1beta2gamma2 GABAA receptor expressed in HEK cell membrane by competitive radioligand binding assay
pKi: −log10 of the molar value.
Label fulfilled when pKi is at or above 8; anything below gets not fulfilled.

Below, 3 compounds whose answers are already recorded.
- MOL_SMILES: "Cc1nnc2n1-c1ccc(Cl)cc1C(c1ccccc1)=NC2"
  CLASS_LABEL: "fulfilled"
- MOL_SMILES: "C#Cc1ccc2c(c1)C(c1ccccc1F)=NCC(=O)N2C"
  CLASS_LABEL: "fulfilled"
- MOL_SMILES: "Cc1nnc2n1-c1ccc(Br)cc1C(c1ccccc1)=NC2"
  CLASS_LABEL: "fulfilled"

Enquiry: Kindly determine if pKi recorded for C[C@H]1N=C(c2ccccc2)c2cc(Br)ccc2NC1=O is above or exactly 8.
Return: not fulfilled

Enquiry: Kindly determine if pKi recorded for C#Cc1ccc2c(c1)C(c1ccccc1)=N[C@@H](C)c1nnc(C)n1-2 is above or exactly 8.
Return: not fulfilled
